Just for reference, ChEMBL document CHEMBL4513216 is where these values come from.

# Test summary: Toxicity liver stage against HepG2, at 10uM
# Assay type: cell-based
# Design: test concentration 10 uM, cell line HepG2-A16-CD81EGFP
# Assay conditions: human, HepG2-A16-CD81EGFP cells; read-out: INHIBITION
Metric: cytotoxicity at 10 µM (%)
Record the value in %, omitting the unit from your answer.

Data request: Item under review: CCN(CC)C(=O)CN(C)C(=O)c1cccn1CCc1ccccc1 . Reported cytotoxicity at 10 µM?
Data returned: 1.98

Data request: Item under review: O=C(c1ccco1)N1CC(S(=O)(=O)c2ccc(Cl)cc2)C1 . Reported cytotoxicity at 10 µM?
Data returned: -2.02

Data request: Item under review: COCCN1CCN(S(=O)(=O)c2ccccc2)Cc2cccnc21 . Reported cytotoxicity at 10 µM?
Data returned: 4.77

Data request: Item under review: COc1cc2c(cc1CN1CCc3sccc3C1C)OCCO2 (stereo unspecified) . Reported cytotoxicity at 10 µM?
Data returned: 8.92

Data request: Item under review: COCCC1COC2(CCN(C(=O)CC3CCCC3)CC2)C1 (stereo unspecified) . Reported cytotoxicity at 10 µM?
Data returned: -2.46

Data request: Item under review: Cc1ccc(-c2nc(CNC3CCc4ncnn4C3)no2)cc1 (stereo unspecified) . Reported cytotoxicity at 10 µM?
Data returned: -1.43

Data request: Item under review: O=C(NCCc1cccs1)[C@H]1CO[C@H]2CCN(C3CCC3)C[C@H]2C1 . Reported cytotoxicity at 10 µM?
Data returned: -116

---

# Test summary: Toxicity liver stage against HepG2, at 10uM
# Format: cell-based
# Set-up: test concentration 10 uM, cell line HepG2-A16-CD81EGFP
# Assay conditions: human, HepG2-A16-CD81EGFP cells; read-out: INHIBITION
Below, each entry is listed with its recorded cytotoxicity at 10 µM.
Record the value in %, omitting the unit from your answer.

// worked examples, cytotoxicity at 10 µM included
Molecule	Unit name	Numeric readout
Cn1cc(C(=O)N2CCCC(Cc3cccc4ncccc34)C2)cn1 (centres undefined)	%	4.88
Cc1ccoc1C(=O)N1CC[C@H]2[C@@H]1CCC(=O)N2c1cccnc1	%	-70.4
Cc1c(NC(=O)N(C)CCO)cccc1OC1CCCC1	%	-0.172
Cc1nn(-c2ccccc2)c2nc(C(C)(C)CN3CCN(C)CC3)[nH]c12	%	-2.13
CCS(=O)(=O)N(C)C(=O)c1cc(C)n(-c2cccc(OC)c2)c1C	%	-2.35

Data request: Item under review: Cc1cnc(CN(Cc2ccc(Cl)s2)C2CCN(C)C2)o1 (centres undefined) . Reported cytotoxicity at 10 µM?
Data returned: 14.5

Data request: Item under review: CO[C@@H]1CC[C@H]2[C@H]1OCCN2CC1CC1 . Reported cytotoxicity at 10 µM?
Data returned: 11.4

Data request: Item under review: O=c1[nH][nH]cc1-c1ccnc(NCCN2CCCCC2)n1 . Reported cytotoxicity at 10 µM?
Data returned: -10.4

Data request: Item under review: Cc1cnn(CC2CN(Cc3nccn3CC(F)(F)F)CCO2)c1 (centres undefined) . Reported cytotoxicity at 10 µM?
Data returned: -11.7

Data request: Item under review: CC(C)COC(=O)N1CCN(C(=O)c2ccc3nccn3c2)CC1 . Reported cytotoxicity at 10 µM?
Data returned: 12.6

---

Below, each entry is listed with its recorded cytotoxicity at 10 µM.
# Test summary: Toxicity liver stage against HepG2, at 10uM
# Assay type: cell-based
# Set-up: test concentration 10 uM, cell line HepG2-A16-CD81EGFP
# Assay conditions: human, HepG2-A16-CD81EGFP cells; read-out: INHIBITION
Record the value in %, omitting the unit from your answer.

Molecule	cytotoxicity at 10 µM [%]
CC(C)CC(=O)N1CC[C@@H]2CN(Cc3cccnc3)S(=O)(=O)[C@@H]2CC1	-103
CCN(CC1CCOC1)C(=O)Nc1ccc(N2CCCCC2)nc1 (stereo unspecified)	-6.45
Cc1nc(CN2CC(CCCc3ccccn3)(C(=O)N(C)C)C2)co1	7.43
Cc1ccc(N2CCN(Cc3ccccc3)C3(CCNCC3)C2=O)cn1	12.1
CCN(CCNS(=O)(=O)C1CCOCC1)C(=O)OC(C)(C)C	-1.8

Data request: Item under review: CCC1=N[C@@]2(CC[C@@H]3CN(C(=O)NCc4cccc(F)c4)C[C@@H]32)C(=O)N1 . Reported cytotoxicity at 10 µM?
Data returned: -69.4

Data request: Item under review: Cc1cc(=O)c(C(=O)N2CCC(C(O)Cc3ccccc3)CC2)c(C)[nH]1 (stereo unspecified) . Reported cytotoxicity at 10 µM?
Data returned: 12.2

Data request: Item under review: CC(C)C(=O)Nc1ncn(Cc2cccc(Br)c2)n1 . Reported cytotoxicity at 10 µM?
Data returned: -9.95

Data request: Item under review: O=C1CC2(CCN(Cc3ccc4cccc(O)c4n3)CC2)CN1 . Reported cytotoxicity at 10 µM?
Data returned: -15.3

Data request: Item under review: COc1cccc(CN2CCC3(CCN(C(=O)C4CC=CC4)CC3)C2)c1 . Reported cytotoxicity at 10 µM?
Data returned: -0.602

Data request: Item under review: Cc1nn(C)cc1-c1cc(C(F)(F)F)nc(NC2CCN(C)CC2)n1 . Reported cytotoxicity at 10 µM?
Data returned: 11.7
